Entries annotated with measured normalized growth
# protocol.text: chemical genetic growth profiling, strain panel (AID 1159580);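 note: tested at 20 µM; growth read once vehicle control cultures reached saturation at 30 °C; 1 = growth at the plate median or of vehicle wells; lower values mean less growth of the strain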
# test.settings: S. cerevisiae deletion strains, growth OD, locus YJL115W, strain asf1, hits give low values
Screen size: about 5,500 compounds; about 2,000 (36%) were called active. Inconclusive results (about 18%) are left out. Some of the results follow.
The answer should be written as a number, with no unit following it.

Fill in the blank: the reported normalized growth of O=C(O)CCCc1ccc(N(CCCl)CCCl)cc1 is ____.
0.952

// returns reported normalized growth for input CCC[C@H](N[C@@H](C)C(=O)N1[C@H](C(=O)O)C[C@@H]2CCCC[C@@H]21)C(=O)OCC
1.02

Which value of normalized growth has been reported for COc1ccc2c(c1)OC1(O)COc3cc(OC)c(OC)cc3C1=C2 (stereo unspecified) in the records?
0.983

Query: normalized growth; subject: N[C@@H](Cc1ccc(N(CCCl)CCCl)cc1)C(=O)O
0.981

For the molecule shown here, CCN(CC)C(=O)N1CCN(C)CC1 , give the reported normalized growth.
0.946

Continuing:
Could you tell me which normalized growth is on file for COc1cc(CNC(=O)CCCC/C=C/C(C)C)ccc1O ?
0.979

Which normalized growth value is on record for CN1CC(=O)N=C1N ?
1.02

What measured normalized growth goes with CC(C)NCC(O)COc1cccc2[nH]ccc12 (stereo unspecified) ?
0.975

Form field: reported normalized growth of CC[C@@]1(O)C[C@H](O[C@H]2C[C@H](N(C)C)[C@H](O)[C@H](C)O2)c2c(cc3c(c2O)C(=O)c2c(O)cccc2C3=O)[C@H]1C(=O)OC
0.507

Can you share its normalized growth? I mean this molecule: CC[C@@]1(O)C[C@H](O[C@H]2C[C@H](N(C)C)[C@H](O)[C@H](C)O2)c2c(cc3c(c2O)C(=O)c2c(O)ccc(O)c2C3=O)[C@H]1C(=O)OC
0.947

---

# protocol.text: chemical genetic growth profiling, strain panel (AID 1159580);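 note: tested at 20 µM; growth read once vehicle control cultures reached saturation at 30 °C; 1 = growth at the plate median or of vehicle wells; lower values mean less growth of the strain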
# test.settings: S. cerevisiae deletion strains, growth OD, locus YDR069C, strain doa4, hits give low values
In all, about 5,500 compounds went through this assay and about 2,000 (36%) were called active. Inconclusive results (about 18%) are left out. This is one part of the list.
reported.endpoint: normalized growth

Completed entries (count: 6):
Given the entry Cn1c(=O)c2c(ncn2CC(O)CO)n(C)c1=O (stereo unspecified) , report its measured normalized growth.
0.958 (inactive)

// lookup normalized growth for NS(=O)(=O)c1cc2c(cc1Cl)NC=NS2(=O)=O
1 (inactive)

Could you share which normalized growth value was measured for OCC(O)CN1CCN(c2ccccc2)CC1 (stereo unspecified) ?
0.982 (inactive)

Find the recorded normalized growth belonging to CC(=O)Oc1cc(OC(C)=O)c2c(c1)O[C@H](c1ccc(OC(C)=O)c(OC(C)=O)c1)[C@@H](OC(C)=O)C2 and report it.
0.994 (inactive)

Give its normalized growth value. Item: CN1CC(=O)N=C1N
1.04 (inactive)

# query: normalized growth of entry COc1cc(CNC(=O)CCCC/C=C/C(C)C)ccc1O
0.981 (inactive)

Next molecule, normalized growth to be filled in.
Value lookup for normalized growth; key = COC(=O)C1=COC(OC2OC(CO)C(O)C(O)C2O)C2C(C)CC(=O)C12 (stereo unspecified)
1.02 (inactive)
